Each recorded value in this set is attributed to paper PMC8325119.

# MIC values compiled below
system: Staphylococcus aureus (S. aureus) ATCC 6538

{"compound": "O=C(O)c1cn(C2CC2)c2cc(N3CCNCC3)c(F)cc2c1=O [ciprofloxacin, reference compound]", "MIC, µM": 1.12}
{"compound": "COc1cccc(Nc2c(F)cc3c(=O)c(C(=O)O)cn(C4CC4)c3c2N)c1", "MIC, µM": 0.024}
{"compound": "COc1ccc(Nc2c(F)cc3c(=O)c(C(=O)O)cn(C4CC4)c3c2N)c(OC)c1", "MIC, µM": 0.004}
{"compound": "CCCCc1ccc(Nc2c(F)cc3c(=O)c(C(=O)O)cn(C4CC4)c3c2N)cc1", "MIC, µM": 0.32}

###

system: T47D cell line; experiment: cells; conditions: read-out: Cytotoxicity IC50 value, T47D cell line; SRB, 72 h, 0.1-200 μg/mL range, mean ± SD; NI = lack of cytotoxicity in range
pIC50: −log10 of the molar value.
property: pIC50

{"compound": "CCn1cc(C(=O)O)c(=O)c2cc(F)c3c(nnn3-c3ccccc3OC)c21 [13a]", "quantitativeResult": 4.24}
{"compound": "CCn1cc(C(=O)O)c(=O)c2cc(F)c3c(nnn3-c3cccc(OC)c3)c21 [13b]", "quantitativeResult": 3.93}

###

test system: PANC 1 cell line; test: SRB cytotoxicity assay, PANC 1 pancreatic cancer cell line
pIC50: −log10 of the molar value.
property: pIC50

{"compound": "CCn1cc(C(=O)O)c(=O)c2cc(F)c3c(nnn3-c3ccccc3OC)c21 [13a]", "quantitativeResult": 3.51}

###

test system: K562 cell line; test: SRB cytotoxicity assay, K562 leukaemia cell line; conditions: Homo sapiens, K562, 72 h, read-out: Cytotoxicity IC50 value, K562 cell line, SRB, 72 h, 0.1-200 μg/mL range, mean ± SD; NI = lack of cytotoxicity in range
property: IC50 (µM)

{"compound": "CCn1cc(C(=O)O)c(=O)c2cc(F)c3c(nnn3-c3ccc(OC)cc3OC)c21 [13c]", "quantitativeResult": 68.7}
{"compound": "CCCCCCc1ccc(Nc2c(F)cc3c(=O)c(C(=O)O)cn(C4CC4)c3c2[N+](=O)[O-])cc1", "quantitativeResult": 64.1}
{"compound": "CCc1ccc(Nc2c(F)cc3c(=O)c(C(=O)O)cn(C4CC4)c3c2N)cc1", "quantitativeResult": 41.8}
{"compound": "COc1cccc(-n2nnc3c4c(cc(F)c32)c(=O)c(C(=O)O)cn4C2CC2)c1", "quantitativeResult": 11.6}
{"compound": "COc1ccc(-n2nnc3c4c(cc(F)c32)c(=O)c(C(=O)O)cn4C2CC2)c(OC)c1", "quantitativeResult": 56}
{"compound": "COc1ccccc1-n1nnc2c3c(cc(F)c21)c(=O)c(C(=O)O)cn3C1CC1", "quantitativeResult": 41.7}
{"compound": "COc1ccc(Nc2c(F)cc3c(=O)c(C(=O)O)cn(C4CC4)c3c2N)cc1", "quantitativeResult": 52.1}
{"compound": "CCn1cc(C(=O)O)c(=O)c2cc(F)c(Nc3ccccc3OC)c(N)c21 [12a]", "quantitativeResult": 21}
{"compound": "CCn1cc(C(=O)O)c(=O)c2cc(F)c(Nc3ccc(OC)cc3OC)c(N)c21 [12c]", "quantitativeResult": 26.4}
{"compound": "CCn1cc(C(=O)O)c(=O)c2cc(F)c(Nc3ccccc3OC)c([N+](=O)[O-])c21 [11a]", "quantitativeResult": 15.9}
{"compound": "COc1cccc(Nc2c(F)cc3c(=O)c(C(=O)O)cn(C4CC4)c3c2N)c1", "quantitativeResult": 17}
{"compound": "COc1ccccc1Nc1c(F)cc2c(=O)c(C(=O)O)cn(C3CC3)c2c1N", "quantitativeResult": 44}
{"compound": "CCOC(=O)c1cn(C2CC2)c2c([N+](=O)[O-])c(Nc3ccc(F)cc3)c(F)cc2c1=O", "quantitativeResult": 806}
{"compound": "O=C(O)c1cn(C2CC2)c2c([N+](=O)[O-])c(NC3CCCCC3)c(F)cc2c1=O", "quantitativeResult": 28.2}
{"compound": "CCOC(=O)c1cn(C2CC2)c2c([N+](=O)[O-])c(Cl)c(F)cc2c1=O", "quantitativeResult": 99.1}
{"compound": "Nc1c(NC2CCCCC2)c(F)cc2c(=O)c(C(=O)O)cn(C3CC3)c12", "quantitativeResult": 67.9}
